Quick list: Emax per entry.
molecular target: 5HT2B receptors (Homo sapiens, UniProt P41595); construct: expressed in transfected cells; host or cells: CHO-K1 cells; assay: Human 5-HT2B functional high throughput screening assay in CHO-K1 cells (calcium flux); assay type: cell-based; conditions: CHO-K1
Sequence (P41595 whole entry): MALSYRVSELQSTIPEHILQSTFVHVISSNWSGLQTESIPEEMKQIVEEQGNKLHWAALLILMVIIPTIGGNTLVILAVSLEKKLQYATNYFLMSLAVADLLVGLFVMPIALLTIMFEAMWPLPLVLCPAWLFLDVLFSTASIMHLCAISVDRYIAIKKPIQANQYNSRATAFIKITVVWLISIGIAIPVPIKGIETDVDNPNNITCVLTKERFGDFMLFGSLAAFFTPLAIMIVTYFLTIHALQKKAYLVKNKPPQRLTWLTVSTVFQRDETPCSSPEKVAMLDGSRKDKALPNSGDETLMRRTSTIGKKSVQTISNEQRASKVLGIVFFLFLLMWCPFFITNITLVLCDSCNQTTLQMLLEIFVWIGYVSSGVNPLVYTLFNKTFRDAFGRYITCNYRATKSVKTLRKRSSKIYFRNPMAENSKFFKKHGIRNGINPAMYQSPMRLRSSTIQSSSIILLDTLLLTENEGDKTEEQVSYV
# number only, unit % dropped from output

Look over these answered cases.
Compound	Endpoint unit	Emax
Clc1ccc2c(c1)[C@H]1CNC[C@@H]1CCO2 [Example 233]	%	55
Nc1ccc2c(c1)C(=O)NC[C@@H]1CNC[C@@H]21 (relative stereo) [Example 144]	%	60
Clc1cc(Br)c2c(c1)[C@H]1CNC[C@@H]1CCO2 (relative stereo) [Example 394]	%	45
COc1ccc2c(c1)C(=O)N(C)C[C@@H]1CNC[C@@H]21 (relative stereo) [Example 188]	%	90
Clc1cc(Br)c2c(c1)[C@@H]1CNC[C@@H]1CCO2 (relative stereo) [Example 393]	%	20
Cc1noc(C)c1-c1ccc2c(c1)C(=O)NC[C@@H]1CNC[C@@H]21 (single isomer, unassigned) [Example 245]	%	15
CN1C[C@H]2CCN(C)c3ccccc3[C@@H]2C1 (relative stereo) [Example 330]	%	30
CN1C[C@H]2CNC(=O)c3cc(F)ccc3[C@@H]2C1 (relative stereo) [Example 91]	%	25

Look up Emax for this compound: Brc1ccc2c(c1)[C@H]1CNC[C@@H]1CCO2 (relative stereo) [Example 214]
50

Here is the next compound: O=C1NC[C@H]2CNC[C@@H]2c2c(F)cc(F)cc21 [Example 106]
95

Field entry: O=S(=O)(c1ccc(Br)s1)N1Cc2cccnc2[C@@H]2CNC[C@H]2C1 (relative stereo) [Example 360]
20

Again, but for O=S(=O)(c1cccc(F)c1)N1Cc2cccnc2[C@@H]2CNC[C@H]2C1 (relative stereo) [Example 337]
30

Moving on to Fc1ccc(F)c2c1OCC[C@H]1CNC[C@H]21 (relative stereo) [Example 289]
95

Then O=C1NC[C@@H]2CNC[C@H]2c2cccc(OC(F)(F)F)c21 (relative stereo) [Example 103] ?
110

Same lookup for O=C1NC[C@H]2CN(Cc3ccccc3)C[C@@H]2c2ccc(F)cc21 [Example 61] , please.
10

Further, for c1ccc2c(c1)OCC[C@H]1CNC[C@H]21 (relative stereo) [Example 94] ?
45

Request: Cc1cccc2c1OCC[C@H]1CNC[C@H]21 (relative stereo) [Example 291]
60

###

biological target: 5HT2C receptors (Homo sapiens); test: Human 5-HT2C functional high throughput screening assay in CHO-K1 cells (calcium flux); format: cell-based; set-up: expressed in transfected cells; host or cells: CHO-K1 cells; conditions: 5-HT2C agonist activity; CHO-K1 cells; calcium flux; read-out: EC50
pEC50: −log10 of the molar value.
Readout kind: pEC50

Some compounds with recorded pEC50:
Compound	Measured
COc1ccc(C(C)C)cc1-c1ccc2c(c1)C(=O)NC[C@@H]1CN(C)C[C@@H]21 (relative stereo)	7.52
O=S(=O)(c1ccc(Cl)c(Cl)c1)N1Cc2cccnc2[C@@H]2CNC[C@H]2C1 (relative stereo)	7.15
CN1C[C@H]2CNC(=O)c3cc(C4CCCCC4)ccc3[C@@H]2C1 (relative stereo)	6.30
CN1C[C@H]2CNC(=O)c3cc(-c4cccc(F)c4)ccc3[C@@H]2C1 (relative stereo)	7.96
CCC(O)c1cccc(-c2ccc3c(c2)C(=O)NC[C@H]2CN(C)C[C@H]32)c1 (stereo partly drawn)	9.10
COc1ccccc1CCOc1ccc2c(c1)C(=O)NC[C@@H]1CNC[C@@H]21 (relative stereo)	7.70
COc1ccccc1-c1ccc2c(c1)C(=O)NC[C@@H]1CN(C)C[C@@H]21 (relative stereo)	7.00
CC(=O)c1cccc(-c2cccc3c2OCC[C@H]2CNC[C@H]32)c1 (relative stereo)	7.05
CN1C[C@@H]2CNC[C@H]2c2ccc(-c3cccc(CCO)c3)cc2C1=O (relative stereo)	9.05
c1ccc2c(c1)NCC[C@@H]1CNC[C@@H]21 (relative stereo)	6.05

a. CC(C)C(O)c1cccc(-c2ccc3c(c2)C(=O)NC[C@H]2CN(C)C[C@H]32)c1 (stereo partly drawn)
b. CN1C[C@H]2CNC(=O)c3cc(-c4ccc5nonc5c4)ccc3[C@@H]2C1 (relative stereo)
c. O=C1NC[C@@H]2CN(Cc3ccccc3)C[C@H]2c2ccc(O)cc21 (relative stereo)
Arrange these compounds by their pEC50, starting with the largest number. Respond with an ordered listing of the labels, as requested.
a, b, c

###

target: 5HT2B receptors (Homo sapiens); construct: expressed in transfected cells; host or cells: CHO-K1 cells; assay: Human 5-HT2B functional high throughput screening assay in CHO-K1 cells (calcium flux); assay type: cell-based; conditions: 5-HT2B; maximum functional response as percentage relative to the effect of serotonin
Readout kind: Emax

Example results:
Molecule	Target system	Emax
Cc1cc(-c2ccc3c(c2)C(=O)NC[C@@H]2CN(C)C[C@@H]32)ccc1F (relative stereo)	5HT2B receptors (Homo sapiens)	inactive
CN1C[C@H]2CNC(=O)c3cc(-c4ccc(F)cc4)ccc3[C@@H]2C1 [Example 116]	5HT2B receptors (Homo sapiens)	inactive
O=C1NC[C@@H]2CNC[C@H]2c2ccc(OCCc3cccc(F)c3)cc21 (relative stereo)	5HT2B receptors (Homo sapiens)	inactive
CCCC(O)c1cccc(-c2ccc3c(c2)C(=O)NC[C@H]2CN(C)C[C@H]32)c1 (stereo partly drawn)	5HT2B receptors (Homo sapiens)	inactive

// Emax lookup, key: Cc1ccc(-c2ccc3c(c2)C(=O)NC[C@@H]2CN(C)C[C@@H]32)o1 (relative stereo)
inactive

What would you report for c1ccc(CN2C[C@H]3CCOc4ncccc4[C@@H]3C2)cc1 (relative stereo) ?
inactive

What do you have for CN1C[C@H]2CNC(=O)c3cc(-c4ccc5c(c4)CCO5)ccc3[C@@H]2C1 (relative stereo) ?
inactive

Then CC(C)c1ccc2c(c1)C(=O)NC[C@@H]1CN(C)C[C@@H]21 (relative stereo) ?
inactive

Follow-up item: CN1C[C@H]2CNC(=O)c3cc(/C=C/C4CC4)ccc3[C@@H]2C1 (relative stereo)
inactive

Now give it for O=C1NC[C@@H]2CNC[C@H]2c2ccc(-c3ccncc3)cc21 (relative stereo) too.
inactive

Follow-up entry: `CN1C[C@@H]2CNC(=O)c3cc(OCc4ccc(F)c(F)c4)ccc3[C@H]2C1`
inactive

How about this molecule: COc1cccc(CCOc2ccc3c(c2)C(=O)NC[C@@H]2CNC[C@@H]32)c1 (relative stereo)
inactive

###

molecular target: 5HT2C receptors (Homo sapiens); assay: Human 5-HT2C functional high throughput screening assay in CHO-K1 cells (calcium flux); assay type: cell-based; set-up: expressed in transfected cells; host or cells: CHO-K1 cells; conditions: CHO-K1; 5-HT2C; maximum functional response as percentage relative to the effect of serotonin; read-out: Emax
Readout kind: Emax (%)

Molecule	Endpoint unit	Measured
CS(=O)(=O)c1ccccc1-c1ccc2c(c1)C(=O)NC[C@@H]1CNC[C@@H]21 (relative stereo)	%	105
COc1ccc2c(c1)C(=O)NC[C@@H]1CN(Cc3ccccc3)C[C@H]21 (relative stereo)	%	100
O=C1NC[C@@H]2CN(Cc3ccccc3)C[C@H]2c2cc(F)ccc21 (relative stereo)	%	120

###

molecular target: 5HT2C receptors (Homo sapiens, UniProt P28335); assay: Human 5-HT2C functional high throughput screening assay in CHO-K1 cells (calcium flux); type: cell-based; set-up: expressed in transfected cells; host or cells: CHO-K1 cells; details: CHO-K1; 5-HT2C; maximum functional response as percentage relative to the effect of serotonin; read-out: Emax
Sequence (P28335 33-458): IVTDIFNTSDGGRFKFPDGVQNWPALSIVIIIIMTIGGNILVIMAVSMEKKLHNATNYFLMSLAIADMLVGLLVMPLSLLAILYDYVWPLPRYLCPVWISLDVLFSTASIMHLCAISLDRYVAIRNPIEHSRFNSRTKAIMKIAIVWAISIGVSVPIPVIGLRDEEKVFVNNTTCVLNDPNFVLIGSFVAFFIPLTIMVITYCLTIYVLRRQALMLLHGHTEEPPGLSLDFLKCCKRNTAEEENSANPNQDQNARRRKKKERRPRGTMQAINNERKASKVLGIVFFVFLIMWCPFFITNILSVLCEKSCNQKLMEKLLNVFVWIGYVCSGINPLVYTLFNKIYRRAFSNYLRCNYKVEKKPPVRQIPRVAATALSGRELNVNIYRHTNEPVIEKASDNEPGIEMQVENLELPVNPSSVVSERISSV
Readout kind: Emax (%)

Compound	Readout kind	Endpoint unit	Measured
COc1ccc(F)cc1-c1ccc2c(c1)C(=O)NC[C@@H]1CN(C)C[C@@H]21 (relative stereo) [Example 300]	Emax	%	100
COc1ccc(-c2ccc3c(c2)C(=O)NC[C@@H]2CN(C)C[C@@H]32)cc1C (relative stereo) [Example 315]	Emax	%	90
O=C1NC[C@@H]2CN(Cc3ccccc3)C[C@@H]2c2cccc(F)c21 (relative stereo) [Example 59]	Emax	%	120
Fc1ccc(-c2cccc3c2NCC[C@@H]2CNC[C@@H]32)cc1 (relative stereo) [Example 401]	Emax	%	70
CN1C[C@@H]2CCOc3c(-c4ccc(F)cc4)cccc3[C@H]2C1 (relative stereo) [Example 400]	Emax	%	70
CN1C[C@H]2CNC(=O)c3cc(-c4ccc5c(c4)C(=O)CCO5)ccc3[C@@H]2C1 (relative stereo) [Example 390]	Emax	%	90
C[C@H](O)c1cc(-c2ccc3c(c2)C(=O)NC[C@H]2CN(C)C[C@H]32)ccc1F (single isomer, unassigned) [Example 352]	Emax	%	105
CCS(=O)(=O)c1cccc(-c2ccc3c(c2)C(=O)NC[C@@H]2CN(C)C[C@@H]32)c1 (relative stereo) [Example 255]	Emax	%	90

###

target: UniProtKB P28335; assay: Human 5-HT2C functional high throughput screening assay in CHO-K1 cells (calcium flux); type: cell-based; set-up: expressed in transfected cells; host or cells: CHO-K1 cells; conditions: 5-HT2C agonist activity; CHO-K1 cells; calcium flux; read-out: EC50
Readout kind: EC50 (µM)

Here's what some known entries look like.
Compound	EC50 / µM
O=C1NC[C@@H]2CN(Cc3ccccc3)C[C@H]2c2cccc(F)c21 (relative stereo)	0.03
CNC(=O)c1ccc(-c2cccc3c2OCC[C@H]2CNC[C@H]32)cc1 (relative stereo)	0.6
O=C1NC[C@@H]2CN(CCF)C[C@H]2c2ccc(-c3ccc(F)cc3)cc21 (relative stereo)	0.04
O=C1NC[C@@H]2CN(Cc3ccccc3)C[C@H]2c2cc3ccccc3cc21 (relative stereo)	0.1
CN1C[C@H]2CNC(=O)c3cc(-c4cccc(C(C)(O)C(F)(F)F)c4)ccc3[C@@H]2C1 (relative stereo)	0.001

P. CC(C)c1cccc(-c2ccc3c(c2)C(=O)NC[C@@H]2CNC[C@@H]32)c1 (relative stereo)
Q. O=C1NC[C@@H]2CN(Cc3ccccc3)C[C@H]2c2sccc21 (relative stereo)
R. Nc1ccc2c(c1)C(=O)NC[C@@H]1CN(Cc3ccccc3)C[C@H]21 (relative stereo)
Arrange items by their EC50 values in increasing order. Please list each label once, in the requested order.
P, Q, R
(P: 0.0004 µM, Q: 0.4 µM, R: 2 µM)
